- Test system: UACC-257 melanoma
- Assay overview: NCI-60 one-dose screen, 48 h
- Condition notes: 10 µM unless noted
The panel holds about 83,000 compounds, 20% with a hit somewhere; the sample as a whole holds those more often. Calls of active or inactive are those of the source. Rule for the calls: active = growth percent below 10; inactive = the rest.
Return exactly one item of active, inactive

Recorded test call requested for COc1cc(C2CC(c3ccc(Cl)cc3)=NN2C=O)ccc1Oc1ccnc2cc(Cl)ccc12 (centres undefined)
inactive

Recorded test call requested for `Cc1ccc2c(C)c3c(ccc4ccccc43)c[n+]2c1`
inactive

Recorded test call requested for `CCCCOc1nc2ccccc2cc1/C=C/c1cc(/C=C/c2cc3ccccc3nc2OCCCC)n(-c2ccccc2)n1`
inactive

Recorded test call requested for `O=c1oc2ccccc2cc1-c1cc(-c2ccc(-c3cc(-c4cc5ccccc5oc4=O)nc(-c4cc5ccccc5oc4=O)c3)cc2)cc(-c2cc3ccccc3oc2=O)n1`
inactive

Recorded test call requested for `NS(=O)(=O)c1ccc(CCn2c(SCC(=O)N/N=C/c3cc4ccccc4[nH]3)nc3ccccc3c2=O)cc1`
inactive

Recorded test call requested for `COc1ccc(/C=C/c2nc(NCCCN(C)C)c3ccccc3n2)cc1`
inactive

Recorded test call requested for `Cc1cc(-c2ccc(N=Nc3c(S(=O)(=O)O)cc4cc(S(=O)(=O)O)cc(O)c4c3O)c(C)c2)ccc1N=Nc1c(S(=O)(=O)O)cc2cc(S(=O)(=O)O)cc(O)c2c1O`
inactive

Recorded test call requested for `CCCCCCCCCCCCCCCC1=NCCN1`
inactive

Recorded test call requested for O=C1OCC2=C1C(c1ccccc1)c1cc3c(cc1N2CCO)OCO3 (centres undefined)
inactive

Recorded test call requested for `Cc1ccccc1Nc1n[nH]c(Cc2ccccc2)n1`
inactive

Recorded test call requested for `Cc1[nH]c2ccccc2c1C1=CC(=O)C=CC1=O`
inactive

Recorded test call requested for COc1cc(C)c(Cl)cc1C1=NN(c2ccc(S(N)(=O)=O)cc2)C(/C=C/c2ccccc2)C1 (centres undefined)
inactive

Recorded test call requested for `O=C(CSc1nc2c(n1Nc1ccccc1)-c1ccccc1SC2)Nc1nccs1`
inactive

Recorded test call requested for `C=C1C(=O)O[C@H]2[C@H]1CC/C(COC(=O)NCc1cn(C)c3ccccc13)=C\CC[C@@]1(C)O[C@@H]21`
active

Recorded test call requested for `CCCCCCCOc1cccc(/C=C2\N=C3SCCCN3C2=O)c1`
inactive

Recorded test call requested for CC(C)CCC(=O)[C@@H](C)[C@H]1[C@@H](OC2OCC(O)C(O)C2NS(C)(=O)=O)C[C@H]2[C@@H]3CC=C4C[C@@H](O)CC[C@]4(C)[C@H]3CC[C@]12C (some centres undefined)
active

Recorded test call requested for `CC(C)CCSc1nc(-c2ccc(F)cc2)c(C#N)c(N2CCN(C)CC2)n1`
inactive

Recorded test call requested for `NC(N)=N/N=C/c1cccc(Cl)c1Cl`
inactive

Recorded test call requested for `Clc1ccc(C2=NN[C@H](c3cn(-c4ccccc4)nc3-c3ccccc3)C2)cc1`
inactive

###

- System: OVCAR-4 ovarian
- Assay overview: NCI-60 one-dose screen, 48 h
- Condition notes: 10 µM unless noted
Compounds without any hit were thinned out: in the full panel of roughly 83,000, 20% have a hit. The source made the active and inactive calls. How the source made its calls: active means growth percent below 10; inactive means the rest.
Return exactly one item of active, inactive

Recorded test call requested for `O=C(CCl)Nc1ccc2c(c1)C(=O)c1ccccc1C2=O`
inactive

Recorded test call requested for `CCCCCCCCCCCCCCCC1=NC(C)(C)CN1C(C)C`
inactive

Recorded test call requested for `CN(C)CC(=O)c1ccc2cc(Br)c3ccccc3c2c1`
inactive

Recorded test call requested for `O=[N+]([O-])c1ccc(N/N=C\c2ccc(O)cc2O)nc1`
inactive

Recorded test call requested for `COc1ccc(Nc2nc(N)nc3c(=O)[nH]ccc23)cc1`
inactive

Recorded test call requested for `CCn1c(=O)c(C(=O)NCCCO)c(O)c2ccccc21`
inactive

Recorded test call requested for `COc1ccc2c(c1)C1=NN(C(=O)CO)[C@H](c3ccc(OC(F)(F)F)cc3)[C@@H]1CC2`
inactive

Recorded test call requested for `Nc1nc(NC2CC2)cc(-c2cccc(Cl)c2Cl)n1`
inactive

Recorded test call requested for `CC(=O)Oc1ccccc1C(=O)Nc1ncc([N+](=O)[O-])s1`
inactive

Recorded test call requested for CCCCCN(CCCCC)C(=O)C(CCC(=O)O)NC(=O)c1ccc(Cl)c(Cl)c1 (stereo unspecified)
inactive

Recorded test call requested for `COc1ccccc1/C=C/C(=O)CCC(=O)O`
inactive

Recorded test call requested for `Clc1ccccc1CNc1c2ccccc2nc2ccccc12`
inactive

Recorded test call requested for N/C(=N\OC(=O)c1ccccc1)C(C(=O)NOC(=O)c1ccccc1)C1CCCCC1 (stereo unspecified)
inactive

Recorded test call requested for COc1ccc2c(c1)OC1=C(C(=O)OC1)C2c1cc(OC)c2c(c1)OCCO2 (stereo unspecified)
inactive

Recorded test call requested for `COc1cc2ncnc(Nc3ccc(S(=O)(=O)Nc4nccs4)cc3)c2cc1OCCCN1CCOCC1`
inactive

Recorded test call requested for `CCC(=O)NC1=C(Cl)C(=O)C(NC(=O)CC)=C(Cl)C1=O`
active

Recorded test call requested for `C=C1C(=O)O[C@H]2[C@H]1CC/C(COC(=O)N[C@@H](Cc1c[nH]c3ccccc13)C(=O)OC)=C\CC[C@@]1(C)O[C@@H]21`
inactive

Recorded test call requested for `COc1ccc(Cl)cc1Nc1nc(C(F)(F)F)ccc1C(=O)NN`
active

Recorded test call requested for `CCN(CC)c1ccc(/C=N/NC(=O)c2ccc(S(C)(=O)=O)cc2)c(O)c1`
inactive

Recorded test call requested for CC(=O)N1N=C(C2C(=O)N(C)C(=O)N(C)C2=O)CC1c1ccccc1C(=O)O (stereo unspecified)
inactive

Recorded test call requested for `O=C1/C=C/[C@@H](O)[C@@H]2C[C@@H](O)C[C@H]2/C=C/CCC[C@H]([C@@H](O)CO)O1`
inactive

Recorded test call requested for `COc1ccc(CNc2c3ccccc3nc3ccccc23)cc1F`
inactive

Recorded test call requested for CCOC(=O)C(Cc1ccccc1)n1c(O)c(/C=N/c2ncc(Cc3ccc(Cl)cc3Cl)s2)sc1=S (stereo unspecified)
inactive

Recorded test call requested for `Clc1cc(Cl)cc(-c2cnc3nonc3n2)c1`
inactive

Recorded test call requested for `C=C1C(=O)O[C@H]2[C@H]1CC/C(COC(=O)NCc1c[nH]c3ccc(OC)cc13)=C\CC[C@@]1(C)O[C@@H]21`
inactive

Recorded test call requested for `O=C(/C=C/c1ccco1)c1ccccc1O`
inactive

Recorded test call requested for C=CCOC(=O)C1=C(C)NC2=C(C(=O)CCC2)C1c1ccc(F)cc1 (stereo unspecified)
inactive

Recorded test call requested for `CCCCCCCCCCCCNC(=O)N[C@H](C(=O)N[C@H]1/C=C/CCNC(=O)/C=C/[C@H](C)NC1=O)C(C)C`
active

Recorded test call requested for CC(C)(C)[Si](C)(C)OC1[C@@H](O[Si](C)(C)C(C)(C)C)[C@@H](CNC(=O)NC(=O)NC(=O)CI)O[C@H]1n1cnc2c(NC(=O)Nc3ccccc3)ncnc21 (stereo partly specified)
inactive

Recorded test call requested for `C=C1C(=O)O[C@H]2[C@H]1CC/C(COC(=O)NCc1[nH]nc3ccccc13)=C\CC[C@@]1(C)O[C@@H]21`
inactive

Recorded test call requested for `O=C(NNC(=O)c1cccc(Cl)c1)c1ccccc1`
inactive

Recorded test call requested for CCN1C(=O)C(C)C=C(C)C=C1C (stereo unspecified)
inactive

Recorded test call requested for `COc1ccc2nc3ccccc3c(NCc3ccc(C)cc3)c2c1`
inactive

Recorded test call requested for `CCCCCCCCCCCC1=NC(C)(C)CN1C(C)C`
inactive

Recorded test call requested for `COc1ccc(-n2nc(C(=O)Nc3ccc(F)cc3)nc2-c2cc(OC)c(OC)c(OC)c2)cc1`
inactive

Recorded test call requested for `O=c1c2cc(Br)cc(Br)c2nc(-c2ccc(Cl)cc2)n1/N=C\c1ccccc1F`
active

Recorded test call requested for `COc1cc(/C=C/c2cc(/C=C/c3ccc(O)c(OC)c3)n(C(=O)Nc3ccc(F)c(Cl)c3)n2)ccc1O`
active

Recorded test call requested for `COc1cc(NC(=O)CSc2nc3ccc(Cl)cc3c(=O)n2Cc2ccccc2)cc(OC)c1OC`
inactive

Recorded test call requested for COc1cc(C2CC(c3ccc(Cl)cc3)=NN2C(C)=O)ccc1Oc1nc2c(c(=O)n(C)c(=O)n2C)n1C (stereo unspecified)
inactive

Recorded test call requested for CC(CN1CCN(CC(C)Nc2ccnc3cc(Cl)ccc23)CC1)Nc1ccnc2cc(Cl)ccc12 (stereo unspecified)
active

Recorded test call requested for `CC(C)(CCc1ccccn1)C(=O)CCCc1ccccn1`
inactive
